MEASUREMENT_DESCRIPTION: Catalase activity, conversion of H2O2 to oxygen, polarographic oxygen electrode (Example 2)
Format: biochemical
CONDITION_DESCRIPTION: 10 μM salen manganese complex, 10 mM H2O2
A collection of compounds and their measured Catalase rate
Give the value, in units of μM O2/min, as a plain number.

>  <COMPOUND>
COc1cc(OC)c2c(c1)[O][Mn]([O]C(C)=O)[O]c1cc(OC)cc(OC)c1C=NCCN=C2 [Compound C35]

>  <OBSERVED_MEASUREMENT>
36.0

$$$$
>  <COMPOUND>
[Cl][Mn]1[O]c2ccccc2C=NCCN=Cc2ccccc2[O]1 [Compound C7]

>  <OBSERVED_MEASUREMENT>
148.6

$$$$
>  <COMPOUND>
CC(=O)[O][Mn]1[O]c2c(F)cccc2C=NCCN=Cc2cccc(F)c2[O]1 [Compound C36]

>  <OBSERVED_MEASUREMENT>
167.5

$$$$

What value of Catalase rate has been recorded for this entry: Fc1cccc2c1[O][Mn]([Cl])[O]c1c(F)cccc1C=NCCN=C2 [Compound C37]
182.6

---

MEASUREMENT_DESCRIPTION: SOD activity, inhibition of cytochrome C reduction by xanthine plus xanthine oxidase (Example 1)
Type: biochemical
CONDITION_DESCRIPTION: Example 1, cytochrome C reduction
MEASURE: SOD Activity (units/mM)
Give the value, in units of units/mM, as a plain number.

Would you please look over these solved cases?
>  <COMPOUND>
COc1cc2c(c(C(C)(C)C)c1)[O][Mn]([Cl])[O]c1c(cc(OC)cc1C(C)(C)C)C=NC1CCCCC1N=C2 (stereo not shown)

>  <OBSERVED_MEASUREMENT>
4397

$$$$
>  <COMPOUND>
CC(C)(C)c1cc2c(c(C(C)(C)C)c1)[O][Mn]([Cl])[O]c1c(cc(C(C)(C)C)cc1C(C)(C)C)C=NC1CCCCC1N=C2 (stereo not shown)

>  <OBSERVED_MEASUREMENT>
69

$$$$
>  <COMPOUND>
[Cl][Mn]1[O]c2ccccc2C=NCCN=Cc2ccccc2[O]1

>  <OBSERVED_MEASUREMENT>
575

$$$$

Next compound, please.
What value of SOD Activity has been recorded for this entry: CC(C)(C)c1cc(Cl)cc2c1[O][Mn]([Cl])[O]c1c(cc(Cl)cc1C(C)(C)C)C=NC1CCCCC1N=C2 (stereo not shown)
101

---

Tested on: brain homogenates
MEASUREMENT_DESCRIPTION: Iron-induced lipid peroxidation in brain homogenates (MDA)
Type: biochemical, rat
CONDITION_DESCRIPTION: 5 μM
MEASURE: MDA levels, percent of control
Answer with the number, then the unit.

Would you please look over these solved cases?
>  <SMILES_RECORD>
COc1ccc2c(c1)[O][Mn]([O]C(C)=O)[O]c1cc(OC)ccc1C=NCCN=C2

>  <MDA levels, percent of control>
38%

$$$$
>  <SMILES_RECORD>
CC(=O)[O][Mn]1[O]c2c(F)cccc2C=NCCN=Cc2cccc(F)c2[O]1

>  <MDA levels, percent of control>
37%

$$$$
>  <SMILES_RECORD>
COc1cccc2c1[O][Mn]([O]C(C)=O)[O]c1c(cccc1OC)C=NCCN=C2

>  <MDA levels, percent of control>
35%

$$$$
>  <SMILES_RECORD>
CC(=O)[O][Mn]1[O]c2ccccc2C=NCCN=Cc2ccccc2[O]1

>  <MDA levels, percent of control>
22%

$$$$
>  <SMILES_RECORD>
[Cl][Mn]1[O]c2ccccc2C=NCCN=Cc2ccccc2[O]1

>  <MDA levels, percent of control>
84%

$$$$
>  <SMILES_RECORD>
COc1cc(OC)c2c(c1)[O][Mn]([O]C(C)=O)[O]c1cc(OC)cc(OC)c1C=NCCN=C2

>  <MDA levels, percent of control>
5%

$$$$

Item `COc1ccc2c(c1)[O][Mn]([Cl])[O]c1cc(OC)ccc1C=NCCN=C2` with brain homogenates - MDA levels, percent of control?
30%

Item `Fc1cccc2c1[O][Mn]([Cl])[O]c1c(F)cccc1C=NCCN=C2` with brain homogenates - MDA levels, percent of control?
43%

Where do these numbers come from? They come from patent US7582786B2.
